- Tested on: A549
- PROTOCOL DETAILS: IC50 cell viability (Alamar Blue, 96 h)
Entries annotated with measured IC50 cell viability
Respond with the bare value in nM.

CC[C@]1(O)C[C@H]2CN(CCc3c([nH]c4ccccc34)[C@@](C(=O)OC)(c3cc4c(cc3OC)N(C=O)[C@H]3[C@@](O)(C(=O)OC)[C@H](OC(C)=O)[C@]5(CC)C=CCN6CC[C@]43[C@@H]65)C2)C1 :: 6.14

The recorded IC50 cell viability for entry `COc1cc2ncnc(Nc3ccc(F)c(Cl)c3)c2cc1OCCCN1CCOCC1` equals 2740

---

- Tested on: 14169
- PROTOCOL DETAILS: IC50 cell viability (Alamar Blue, 96 h)
For each record, check the reported IC50 cell viability: if it is below 50 nM write t, else write f.

COc1cc2ncnc(Nc3ccc(F)c(Cl)c3)c2cc1OCCCN1CCOCC1 :: f
Cc1csc(-c2nnc(Nc3ccc(Oc4ncccc4-c4ccnc(N)n4)cc3)c3ccccc23)c1 :: t

Input: Lab note: IC50 cell viability threshold 50 nM. Does this compound come in strictly under it? `O=C1c2c(O)ccc(O)c2C(=O)c2c(NCCNCCO)ccc(NCCNCCO)c21`
Output: t

Input: Lab note: IC50 cell viability threshold 50 nM. Does this compound come in strictly under it? `CN1CC[C@H](c2c(O)cc(O)c3c(=O)cc(-c4ccccc4Cl)oc23)[C@H](O)C1`
Output: t

Input: Lab note: IC50 cell viability threshold 50 nM. Does this compound come in strictly under it? `C[C@H]1O[C@@H](O[C@H]2[C@@H](O)C[C@H](O[C@H]3[C@@H](O)C[C@H](O[C@H]4CC[C@@]5(C)[C@H](CC[C@@H]6[C@@H]5C[C@@H](O)[C@]5(C)[C@@H](C7=CC(=O)OC7)CC[C@]65O)C4)O[C@@H]3C)O[C@@H]2C)C[C@H](O)[C@@H]1O`
Output: f

Input: Lab note: IC50 cell viability threshold 50 nM. Does this compound come in strictly under it? `C/C(=C\c1csc(C)n1)[C@@H]1C[C@@H]2O[C@]2(C)CCC[C@H](C)[C@H](O)[C@@H](C)C(=O)C(C)(C)[C@@H](O)CC(=O)O1`
Output: t

Input: Lab note: IC50 cell viability threshold 50 nM. Does this compound come in strictly under it? `COc1ccccc1S(=O)(=O)Nc1ccc2c(c1)CN(C)C(=O)N2`
Output: f

Input: Lab note: IC50 cell viability threshold 50 nM. Does this compound come in strictly under it? CN(Cc1cnc2nc(N)nc(N)c2n1)c1ccc(C(=O)N[C@@H](CCC(=O)O)C(=O)O)cc1 [Methotrexate]
Output: f

Input: Lab note: IC50 cell viability threshold 50 nM. Does this compound come in strictly under it? `COc1cccc2c1C(=O)c1c(O)c3c(c(O)c1C2=O)C[C@@](O)(C(C)=O)C[C@@H]3O[C@H]1C[C@H](N)[C@H](O)[C@H](C)O1`
Output: t

Input: Lab note: IC50 cell viability threshold 50 nM. Does this compound come in strictly under it? `COc1cc(Nc2ncc3c(n2)-c2ccc(Cl)cc2C(c2c(F)cccc2OC)=NC3)ccc1C(=O)O`
Output: f

Input: Lab note: IC50 cell viability threshold 50 nM. Does this compound come in strictly under it? `CC[C@]1(O)C[C@H]2CN(CCc3c([nH]c4ccccc34)[C@@](C(=O)OC)(c3cc4c(cc3OC)N(C=O)[C@H]3[C@@](O)(C(=O)OC)[C@H](OC(C)=O)[C@]5(CC)C=CCN6CC[C@]43[C@@H]65)C2)C1`
Output: t

Input: Lab note: IC50 cell viability threshold 50 nM. Does this compound come in strictly under it? `COc1cc2c(cc1-c1c(C)noc1C)ncc1[nH]c(=O)n([C@H](C)c3ccccn3)c12`
Output: f

Input: Lab note: IC50 cell viability threshold 50 nM. Does this compound come in strictly under it? `Cc1sc2c(c1C)C(c1ccc(Cl)cc1)=N[C@@H](CC(=O)Nc1ccc(O)cc1)c1nnc(C)n1-2`
Output: t

Input: Lab note: IC50 cell viability threshold 50 nM. Does this compound come in strictly under it? Cc1cc(/C=C/c2ccc3cc(N(C)C)ccc3[n+]2C)c(C)n1-c1ccccc1 [Pyrvinium pamoate]
Output: f

Input: Lab note: IC50 cell viability threshold 50 nM. Does this compound come in strictly under it? `CCCOc1ccn2c(C(C)=O)cc(-c3ccccc3S(C)(=O)=O)c2c1`
Output: f

---

Entries annotated with measured IC50 cell viability
- System: PER-704
- PROTOCOL DETAILS: IC50 cell viability (Alamar Blue, 96 h)
Respond with the bare value in nM.

Use these answered entries as a reference point.
C[C@H]1O[C@@H](O[C@H]2[C@@H](O)C[C@H](O[C@H]3[C@@H](O)C[C@H](O[C@H]4CC[C@@]5(C)[C@H](CC[C@@H]6[C@@H]5C[C@@H](O)[C@]5(C)[C@@H](C7=CC(=O)OC7)CC[C@]65O)C4)O[C@@H]3C)O[C@@H]2C)C[C@H](O)[C@@H]1O [Digoxin] :: 200
COc1ccccc1S(=O)(=O)Nc1ccc2c(c1)CN(C)C(=O)N2 [PFI-1] :: 2160
CC[C@]1(O)C[C@H]2CN(CCc3c([nH]c4ccccc34)[C@@](C(=O)OC)(c3cc4c(cc3OC)N(C=O)[C@H]3[C@@](O)(C(=O)OC)[C@H](OC(C)=O)[C@]5(CC)C=CCN6CC[C@]43[C@@H]65)C2)C1 [Vincristine] :: 6.18

The recorded IC50 cell viability for entry CN1CC[C@H](c2c(O)cc(O)c3c(=O)cc(-c4ccccc4Cl)oc23)[C@H](O)C1 [Flavopiridol] equals 70.8

---

- System: 8645
- PROTOCOL DETAILS: IC50 cell viability (Alamar Blue, 96 h)
METRIC NAME: IC50 cell viability

Use these answered entries as a reference point.
CCN(CCCOc1ccc2c(Nc3cc(CC(=O)Nc4cccc(F)c4)[nH]n3)ncnc2c1)CCOP(=O)(O)O [Barasertib] :: 986 nM
C#Cc1cccc(Nc2ncnc3cc(OCCOC)c(OCCOC)cc23)c1 [Erlotinib] :: 1160 nM
C[C@H]1O[C@@H](O[C@H]2[C@@H](O)C[C@H](O[C@H]3[C@@H](O)C[C@H](O[C@H]4CC[C@@]5(C)[C@H](CC[C@@H]6[C@@H]5C[C@@H](O)[C@]5(C)[C@@H](C7=CC(=O)OC7)CC[C@]65O)C4)O[C@@H]3C)O[C@@H]2C)C[C@H](O)[C@@H]1O [Digoxin] :: 82.5 nM
COc1ccccc1S(=O)(=O)Nc1ccc2c(c1)CN(C)C(=O)N2 [PFI-1] :: 751 nM
CC[C@@]1([C@@H]2O[C@@H]([C@H]3O[C@@](O)(CO)[C@H](C)C[C@@H]3C)C[C@@H]2C)CC[C@H]([C@]2(C)CC[C@]3(C[C@H](O)[C@@H](C)[C@@H]([C@@H](C)[C@@H](OC)[C@H](C)C(=O)O)O3)O2)O1 [Monensin] :: 4650 nM
Cc1csc(-c2nnc(Nc3ccc(Oc4ncccc4-c4ccnc(N)n4)cc3)c3ccccc23)c1 [AMG-900] :: > 10000 nM
Cc1sc2c(c1C)C(c1ccc(Cl)cc1)=N[C@@H](CC(=O)Nc1ccc(O)cc1)c1nnc(C)n1-2 [OTX-015] :: 73.6 nM
Cc1cc(/C=C/c2ccc3cc(N(C)C)ccc3[n+]2C)c(C)n1-c1ccccc1 [Pyrvinium pamoate] :: 268 nM
CN1CC[C@H](c2c(O)cc(O)c3c(=O)cc(-c4ccccc4Cl)oc23)[C@H](O)C1 [Flavopiridol] :: 17.7 nM
CCCOc1ccn2c(C(C)=O)cc(-c3ccccc3S(C)(=O)=O)c2c1 [GSK-2801] :: > 10000 nM

The recorded IC50 cell viability for entry COc1cccc2c1C(=O)c1c(O)c3c(c(O)c1C2=O)C[C@@](O)(C(C)=O)C[C@@H]3O[C@H]1C[C@H](N)[C@H](O)[C@H](C)O1 [Daunorubicin] equals 12.2 nM

The recorded IC50 cell viability for entry COc1cc2c(cc1-c1c(C)noc1C)ncc1[nH]c(=O)n([C@H](C)c3ccccn3)c12 [I-BET 151] equals 529 nM

The recorded IC50 cell viability for entry CC[C@]1(O)C[C@H]2CN(CCc3c([nH]c4ccccc34)[C@@](C(=O)OC)(c3cc4c(cc3OC)N(C=O)[C@H]3[C@@](O)(C(=O)OC)[C@H](OC(C)=O)[C@]5(CC)C=CCN6CC[C@]43[C@@H]65)C2)C1 [Vincristine] equals < 2.5 nM

---

- Tested on: PER-536
- PROTOCOL DETAILS: IC50 cell viability (Alamar Blue, 96 h)
Entries annotated with measured IC50 cell viability
Respond with the bare value in µM.

Use these answered entries as a reference point.
COc1ccccc1S(=O)(=O)Nc1ccc2c(c1)CN(C)C(=O)N2 :: 5.98
CC[C@]1(O)C[C@H]2CN(CCc3c([nH]c4ccccc34)[C@@](C(=O)OC)(c3cc4c(cc3OC)N(C=O)[C@H]3[C@@](O)(C(=O)OC)[C@H](OC(C)=O)[C@]5(CC)C=CCN6CC[C@]43[C@@H]65)C2)C1 :: 0.0207
O=C1c2c(O)ccc(O)c2C(=O)c2c(NCCNCCO)ccc(NCCNCCO)c21 :: 0.144

Consider the record given below.
The recorded IC50 cell viability for entry `Nc1ccn([C@@H]2O[C@H](CO)[C@@H](O)C2(F)F)c(=O)n1` equals 0.00538
